Cited source for all entries: patent US12275729B2

# Target Desc: IDO1 (Homo sapiens)
# Sequence (P14902 whole entry): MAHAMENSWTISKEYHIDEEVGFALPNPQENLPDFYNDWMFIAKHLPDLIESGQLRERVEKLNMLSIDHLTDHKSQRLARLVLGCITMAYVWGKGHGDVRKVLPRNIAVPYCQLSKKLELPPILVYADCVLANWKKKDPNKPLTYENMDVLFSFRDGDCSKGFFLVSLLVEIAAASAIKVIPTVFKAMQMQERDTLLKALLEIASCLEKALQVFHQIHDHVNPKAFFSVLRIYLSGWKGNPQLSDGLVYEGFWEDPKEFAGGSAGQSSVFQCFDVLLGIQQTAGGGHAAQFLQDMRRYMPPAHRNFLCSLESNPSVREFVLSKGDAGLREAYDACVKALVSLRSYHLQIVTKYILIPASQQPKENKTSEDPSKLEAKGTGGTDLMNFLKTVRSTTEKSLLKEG
# Protocol Description: IDO1 Cellular Assay in HeLa Cells Stimulated with IFNγ
# Format: cell-based
# Test Parameters: read-out: Hela IC50
pIC50: −log10 of the molar value. Structures can show the parent of a compound that is named as a salt.
This section presents compounds with their documented pIC50 values.
Observed Property: pIC50

{"Compound": "CCN(CC)CCOC(=O)N1CCCc2nc(C(C)NC(=O)c3ccc(F)cc3)ccc21 (centres unmarked) [Example 324]", "Target Desc": "IDO1 (Homo sapiens)", "Measured Result": 5.47}
{"Compound": "Cc1nc(N2CCCc3nc(C(C)NC(=O)c4ccc(Cl)cc4)ccc32)c2cc(Cl)ccc2n1 (centres unmarked) [Example 359, trifluoroacetate]", "Target Desc": "IDO1 (Homo sapiens)", "Measured Result": 7.60}
{"Compound": "CC(NC(=O)c1ccc(F)cc1)c1ccc2c(n1)CCCN2C(=O)OCc1ccn(C)n1 (centres unmarked) [Example 317]", "Target Desc": "IDO1 (Homo sapiens)", "Measured Result": 7.67}
{"Compound": "CC(NC(=O)c1ccc(F)cc1)c1ccc2c(n1)CCCN2C(=O)OCCC1CC1(F)F (centres unmarked) [Example 319]", "Target Desc": "IDO1 (Homo sapiens)", "Measured Result": 8.01}
{"Compound": "CC(COC(=O)N1CCCc2nc(C(C)NC(=O)c3ccc(F)cc3)ccc21)Oc1ccccc1 (centres unmarked) [Example 327]", "Target Desc": "IDO1 (Homo sapiens)", "Measured Result": 7.84}
{"Compound": "O=C(OC1CC1)N1CCCc2nc(C3(C(=O)Nc4ccc(Cl)nc4)CC4(CC4)C3)ccc21 [Example 418, trifluoroacetate]", "Target Desc": "IDO1 (Homo sapiens)", "Measured Result": 8.87}
{"Compound": "CC(NC(=O)c1ccc(F)cc1)c1ccc2c(n1)CCCN2C(=O)OC1CCCC1 (centres unmarked) [Example 314]", "Target Desc": "IDO1 (Homo sapiens)", "Measured Result": 9.19}
{"Compound": "CC(NC(=O)c1ccc(F)cc1)c1ccc2c(n1)CCCN2C(=O)OCCN(C)C (centres unmarked) [Example 329]", "Target Desc": "IDO1 (Homo sapiens)", "Measured Result": 5.66}
